Target: EGFR (form used in the assay not stated) (human, UniProt P00533 25-645, limits assumed)
Assay: ELISA, NEM conjugate, 10 nM
measured_endpoint: binding relative to P54AR4-83v2 parent (ratio)
Report the value in ratio with no unit label.

Lookup: Need binding relative to P54AR4-83v2 parent of P54AR4-83v2 M83C, NEM conjugate (designed binder, not shown: small tags and cut ends, N-ethyl maleimide (NEM) on Cys 83) LPAPKNLVVSEVTEDSARLSWDDPWAFYESFLIQYQESEKVGEAIVLTVPGSERSYDLTGLKPGTEYTVSIYGVHNVYKDTNCRGLPLSAIFTT , thanks.
Found: 0.07

Lookup: Again, but for P54AR4-83v2 K62C, NEM conjugate (designed binder, not shown: small tags and cut ends, N-ethyl maleimide (NEM) on Cys 62) LPAPKNLVVSEVTEDSARLSWDDPWAFYESFLIQYQESEKVGEAIVLTVPGSERSYDLTGLCPGTEYTVSIYGVHNVYKDTNMRGLPLSAIFTT
Found: 0.64

Lookup: Also need P54AR4-83v2 V74C, NEM conjugate (designed binder, not shown: small tags and cut ends, N-ethyl maleimide (NEM) on Cys 74) LPAPKNLVVSEVTEDSARLSWDDPWAFYESFLIQYQESEKVGEAIVLTVPGSERSYDLTGLKPGTEYTVSIYGCHNVYKDTNMRGLPLSAIFTT , thanks.
Found: 0.76

Lookup: Ok, now P54AR4-83v2 W25C, NEM conjugate (designed binder, not shown: small tags and cut ends, N-ethyl maleimide (NEM) on Cys 25) LPAPKNLVVSEVTEDSARLSWDDPCAFYESFLIQYQESEKVGEAIVLTVPGSERSYDLTGLKPGTEYTVSIYGVHNVYKDTNMRGLPLSAIFTT
Found: 0.38
